Here's a roundup of IC50 values tested on SIK1 (Homo sapiens, UniProt P57059), taken from various published works.
Sequence (P57059 whole entry): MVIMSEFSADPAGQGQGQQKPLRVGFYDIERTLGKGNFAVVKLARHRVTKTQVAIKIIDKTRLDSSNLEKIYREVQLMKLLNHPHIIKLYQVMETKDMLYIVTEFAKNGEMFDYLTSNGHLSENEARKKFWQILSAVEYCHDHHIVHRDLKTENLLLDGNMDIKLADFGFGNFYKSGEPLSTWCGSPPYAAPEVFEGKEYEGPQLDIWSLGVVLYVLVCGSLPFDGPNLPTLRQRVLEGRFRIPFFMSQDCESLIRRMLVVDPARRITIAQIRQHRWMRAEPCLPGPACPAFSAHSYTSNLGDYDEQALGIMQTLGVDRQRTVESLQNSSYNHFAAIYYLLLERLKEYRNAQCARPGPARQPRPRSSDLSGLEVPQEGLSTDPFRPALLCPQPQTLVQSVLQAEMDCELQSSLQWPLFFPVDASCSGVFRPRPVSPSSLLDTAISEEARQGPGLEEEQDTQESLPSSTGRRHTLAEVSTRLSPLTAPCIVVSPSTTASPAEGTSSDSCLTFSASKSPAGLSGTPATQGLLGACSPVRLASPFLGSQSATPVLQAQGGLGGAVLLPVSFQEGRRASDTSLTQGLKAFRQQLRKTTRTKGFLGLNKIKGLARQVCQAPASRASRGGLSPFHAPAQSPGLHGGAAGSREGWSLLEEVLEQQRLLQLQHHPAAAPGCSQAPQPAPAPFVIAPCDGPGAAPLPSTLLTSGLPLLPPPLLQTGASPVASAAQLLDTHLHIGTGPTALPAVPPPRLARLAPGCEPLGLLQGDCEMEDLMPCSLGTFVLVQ
Numeric only. Scale: nM

// worked examples, IC50 included
>>> df
                                   compound                            tested_on  output_unit  value_reported
0  COc1cc2ncn(-c3ccc([C@H](C)O)c(-c4ccccc4C(N)=O)n3)c2cc1OC  SIK1 (Homo sapiens, UniProt P57059)           nM           13400
1  COc1cc2ncn(-c3ccc([C@H](C)O)c(-c4ccn(C)c(=O)c4)n3)c2cc1OC  SIK1 (Homo sapiens, UniProt P57059)           nM             197
2  Cc1ccc(Nc2ccc3c(c2)ncn3-c2ccc(C(C)O)c(-c3cc(F)ncc3C)n2)nn1 (stereo not drawn)  SIK1 (Homo sapiens, UniProt P57059)           nM            1760

Prompt: Item under review: `CSc1cc(-c2cnc3ccc(N)c(C#N)n23)cc(OCC2(N)CCCC2)c1C#N` . Reported IC50?
Response: 0.1

Prompt: Again, but for Cc1ccc(Oc2ccc3c(c2)ncn3-c2ccc(C(C)O)c(-c3cn(CC(F)(F)F)nc3C)n2)nn1 (stereo not drawn)
Response: 3390

Prompt: Again, but for Cc1cc(C#N)nn1-c1nc(-n2cnc3ccc(N4CCC[C@H]4C#N)cc32)ccc1C(C)O (stereo partly drawn)
Response: 14

Prompt: Again, but for COCCOc1cc2c(cc1Nc1ccc(C)nn1)ncn2-c1ccc(C(C)O)c(-n2nc(C#N)cc2C)n1 (stereo not drawn)
Response: 70

Prompt: Again, but for Cc1ccc(Nc2ccc3c(c2)ncn3-c2ccc(C(C)O)c(-n3nc(OC(F)F)cc3C(F)F)n2)nn1 (stereo not drawn)
Response: 41

Prompt: Again, but for Cc1ccc(Nc2ccc3c(c2)ncn3-c2ccc(C(C)O)c(-n3cc(C)c(C#N)n3)n2)nn1 (stereo not drawn)
Response: 216

Prompt: Again, but for Cc1cc(C#N)nn1-c1nc(-n2cnc3cc(NC(=O)C4CC4)ccc32)ccc1C(C)O (stereo not drawn)
Response: 40

Prompt: Again, but for `CNc1ccc2ncc(-c3cc(OCC4(N)CCCC4)c(C#N)c(SC)c3)n2c1C#N`
Response: 0.1

Prompt: Again, but for Cc1ccc(Nc2ccc3c(c2)ncn3-c2ccc(C(C)O)c(-c3cc(C(F)(F)F)nn3C)n2)nn1 (stereo not drawn)
Response: 3460

Prompt: Again, but for `Cc1cc(C#N)nn1-c1nc(-n2cnc3cc(N[C@H]4CNC[C@H]4F)ccc32)ccc1C(N)=O`
Response: 914

Prompt: Again, but for Cc1cc(C#N)nn1-c1nc(-n2cnc3cc(N4CCC[C@H]4C#N)ccc32)ccc1C(C)O (stereo partly drawn)
Response: 22

Prompt: Again, but for Cc1ccc(Nc2ccc3c(c2)ncn3-c2ccc(C(C)O)c(-n3nc(C(F)(F)F)c4c3CCN(C)C4)n2)nn1 (stereo not drawn)
Response: 9

----------
Here's a roundup of log10(IC50) values tested on SIK1 (Homo sapiens, UniProt P57059), taken from various published works.
In plain terms, each number is the log10 of measured IC50 in nM.

In [3]: df
Out[3]:
                                   compound  value_reported
0  Cc1ccc(Nc2ccc3c(c2)ncn3-c2ccc([C@@H](C)O)c(-n3nc(C(F)F)cc3C(F)F)n2)nn1            3.20
1  Cc1cc(C#N)nn1-c1nc(-n2cnc3cc(F)c(Nc4cc5c(nn4)CCC5)cc32)ccc1C(C)O (stereo not drawn)            1.74
2  Cc1ccc(Nc2ccc3c(c2)ncn3-c2ccc(C(C)O)c(-c3cnn(CC4CC4)c3C)n2)nn1 (stereo not drawn)            2.29
3  CSc1cc(-c2cnc3ccc(N(C)C)c(C#N)n23)cc(OCC2(N)CCCC2)c1C#N           -0.70
4  Cc1ccc(Nc2ccc3c(c2)ncn3-c2ccc(C(C)O)c(-c3cc(OC(F)F)nnc3C)n2)nn1 (stereo not drawn)            3.05
5  Cc1ccc(Nc2ccc3ncn(-c4ccc(C(C)O)c(N5CC[C@@H]6NCC[C@H]65)n4)c3c2)nn1 (stereo partly drawn)            2.99

Prompt: Item under review: `COC(=O)c1ccc(-n2cnc3cc(OC)c(OC)cc32)nc1-c1cccc(Cl)c1` . Reported log10(IC50)?
Response: 4.35

Prompt: Again, but for Cc1ccc(Nc2ccc3c(c2)ncn3-c2ccc(C(C)O)c(N3CCN(CC(F)(F)F)C(=O)C3)n2)nn1 (stereo not drawn)
Response: 2.54

Prompt: Again, but for Cc1ccc(Nc2ccc3c(c2)ncn3-c2ccc(C(C)O)c(-c3cc(C#N)nn3C)n2)nn1 (stereo not drawn)
Response: 4.11

Prompt: Again, but for Cc1cc(C#N)nn1-c1nc(-n2cnc3cc(N4CC[C@H]5CNC(=O)[C@H]54)ccc32)ccc1C(C)O (stereo partly drawn)
Response: 2.05

Prompt: Again, but for Cc1ccc(Nc2cc3ncn(-c4ccc(C(C)O)c(-n5nc(C#N)cc5C)n4)c3cc2OC2CCNC2)nn1 (stereo not drawn)
Response: 2.29

Prompt: Again, but for COc1cc2ncn(-c3ccc(C(C)O)c(-n4nc(C#N)cc4C)n3)c2cc1Nc1ccc(C)nn1 (stereo not drawn)
Response: 1.71

Prompt: Again, but for Cc1ccc(Nc2ccc3ncn(-c4ccc(C(C)O)c(-n5nc(OC(F)F)cc5C(F)F)n4)c3c2)nn1 (stereo not drawn)
Response: 1.59

Prompt: Again, but for `COc1cc2ncn(-c3ccc(CO)c(NCCCCO)n3)c2cc1OC`
Response: 2.71

----------
Here's a roundup of IC50 values tested on SIK1 (Homo sapiens, UniProt P57059), taken from various published works.
Threshold-based label: IC50 under 200 nM gives TRUE, IC50 not under 200 nM gives FALSE.

Example entries and their recorded answers appear below.
>>> print(df.to_string())
                                   compound    cat
0  Cc1ccc(Nc2ccc3c(c2)ncn3-c2ccc(C(C)O)c(-c3ccn(CC(F)(F)F)c(=O)c3F)n2)nn1 (stereo not shown)   TRUE
1  Cc1nnc(Nc2cc3c(cc2F)ncn3-c2ccc(C(C)O)c(-n3nc(C#N)cc3C)n2)o1 (stereo not shown)   TRUE
2  Cc1ccc(Nc2ccc3c(c2)ncn3-c2ccc(C(C)O)c(N3CCOC(C(F)(F)F)C3)n2)nn1 (stereo not shown)  FALSE
3  COc1cccc2ncc(-c3cc(OCC4(N)CCCC4)c(C#N)c(SC)c3)n12   TRUE

Prompt: Below 200 nM on IC50? Entry `COc1cc2ncn(-c3ccc(CO)c(-c4cccc(Cl)c4)n3)c2cc1OC`
Response: TRUE

Prompt: Again, but for Cc1ccc(Nc2cc3ncn(-c4ccc(C(C)O)c(-n5nc(C#N)cc5C)n4)c3cc2OC(F)F)nn1 (stereo not shown)
Response: TRUE

Prompt: Again, but for `CCNC(=O)c1ccc(-n2cnc3cc(OC)c(OC)cc32)nc1-c1cccc(C#N)c1`
Response: FALSE

Prompt: Again, but for COc1cc2ncn(-c3ccc(C(C)O)c(-c4cccc(Cl)c4)n3)c2cc1OC (stereo not shown)
Response: TRUE

Prompt: Again, but for Cc1ccc(Nc2ccc3ncn(-c4ccc(C(C)O)c(-n5nc(C(F)F)cc5C)n4)c3c2)nn1 (stereo not shown)
Response: TRUE

----------
Here's a roundup of IC50 values tested on SIK1 (Homo sapiens, UniProt P57059), taken from various published works.

>>> df
                                   compound  value_reported
0  CCc1cc(C(F)F)nn1-c1nc(-n2cnc3cc(Nc4ccc(C)nn4)ccc32)ccc1C(C)O (stereo not shown)          496 nM
1  Cc1ccc(Nc2ccc3c(c2)ncn3-c2ccc(C(C)O)c(N3CC4CC3C(F)(F)C4)n2)nn1 (stereo not shown)          577 nM
2  Cc1cc(C(F)F)nn1-c1nc(-n2cnc3cc(N4C[C@H]5OCCN(C)[C@H]5C4)ccc32)ccc1CO          327 nM
3  Cc1ccc(Nc2ccc3c(c2)ncn3-c2ccc(C(C)O)c(-c3ccc(O)cc3C#N)n2)nn1 (stereo not shown)         6740 nM
4  Cc1ccc(Nc2ccc3c(c2)ncn3-c2ccc([C@H](C)O)c(-n3nc(C#N)cc3C)n2)nn1         1800 nM

Prompt: Lab note: need IC50 with SIK1 (Homo sapiens, UniProt P57059) for entry `COc1cc2ncn(-c3ccc([C@@H](C)O)c(-c4ccccc4C(N)=O)n3)c2cc1OC` , please look it up.
Response: 23900 nM

Prompt: Again, but for Cc1ccc(Nc2ccc3c(c2)ncn3-c2ccc(C(C)O)c(-c3cc(C(F)F)ncc3C)n2)nn1 (stereo not shown)
Response: 10 nM

Prompt: Again, but for Cc1ccc(Nc2cc3ncn(-c4ccc(C(C)O)c(-n5nc(OC(F)F)cc5C)n4)c3cc2OC2COC2)nn1 (stereo not shown)
Response: 19 nM

Prompt: Again, but for Cc1cc(C#N)nn1-c1nc(-n2cnc3cc(Nc4ccc(OCCN5CCS(=O)(=O)CC5)nn4)ccc32)ccc1C(C)O (stereo not shown)
Response: 72 nM

Prompt: Again, but for `Cc1ccc(Nc2ccc3c(c2)ncn3-c2ccc(C(=O)C(F)(F)F)c(-n3nc(C#N)cc3C)n2)nn1`
Response: 2330 nM

Prompt: Again, but for Cc1ccc(Nc2ccc3c(c2)ncn3-c2ccc(C(C)O)c(-c3occc3C#N)n2)nn1 (stereo not shown)
Response: > 30000 nM

Prompt: Again, but for Cc1ccc(Nc2ccc3ncn(-c4ccc(C(C)O)c(-n5cc(C#N)c(C)n5)n4)c3c2)nn1 (stereo not shown)
Response: 27000 nM

Prompt: Again, but for `CSc1cc(-c2cnc3cc(Cl)cc(C#N)n23)cc(OCC2(N)CCCC2)c1C#N`
Response: 3 nM

Prompt: Again, but for Cc1ccc(Nc2ccc3c(c2)ncn3-c2ccc(C(C)O)c(-n3nc(C#N)c4c3C(F)(F)CNC4)n2)nn1 (stereo not shown)
Response: 155 nM

Prompt: Again, but for COc1cc2ncn(-c3ccc(C(C)O)c(-c4ccc(F)cc4OC)n3)c2cc1OC (stereo not shown)
Response: 327 nM

Prompt: Again, but for Cc1nnc(Nc2cc3ncn(-c4ccc(C(C)O)c(-n5nc(C#N)cc5C)n4)c3cc2F)o1 (stereo not shown)
Response: 47 nM
